tested on: Calu-3; assay: cell viability relative to DMSO; higher = less toxic; settings: 72 h; 1000 nM
# cell viability listing for each entry below
Use % as the unit, but write only the number.

## Task Please report the recorded cell viability for Cn1c(=O)c2c(ncn2CC(=O)Nc2ccc(-c3ccccc3)nn2)n(C)c1=O [ETC-159] .
## Result 113

## Task Another compound to look at: C[C@@H]1C(=O)O[C@H]2C[C@@]34[C@H]5C[C@@H](C(C)(C)C)[C@]36[C@@H](OC(=O)[C@@H]6O)O[C@@]4(C(=O)O5)[C@]21O [Ginkgolide A]
## Result 106

## Task Another compound to look at: COc1ccc(S(=O)(=O)N(C(C)=O)c2ccccc2/C=C/c2cc[n+]([O-])cc2)cc1 [HMN-214]
## Result 71.5

## Task Another compound to look at: O=C(c1ccccn1)c1cnn2c(-c3ccncc3)ccnc12 [ocinaplon]
## Result 95.7

## Task Another compound to look at: C[N+](C)(C)CCOP(=O)(O)OC[C@H](O)CO [choline-alfoscerate]
## Result 96.3

## Task Another compound to look at: N#CC(c1ccc(Cl)cc1)c1c(Cl)cc(-n2ncc(=O)[nH]c2=O)cc1Cl (configuration not stated) [diclazuril]
## Result 92.9

## Task Another compound to look at: CC(=O)NC[C@H]1CN(c2ccc(-c3ccc(CNCc4cnn[nH]4)cc3)c(F)c2)C(=O)O1 [radezolid]
## Result 90.6

## Task Another compound to look at: C[C@H](NC(=O)/C(C#N)=C/c1cccc(Br)n1)c1ccccc1 [WP1066]
## Result 103

## Task Another compound to look at: O=C(c1ccc(F)cc1)C1CCN(CCn2c(=S)[nH]c3ccccc3c2=O)CC1 [altanserin]
## Result 97.3

## Task Another compound to look at: c1ccc(CN(CC2=NCCN2)c2ccccc2)cc1 [antazoline]
## Result 104

## Task Another compound to look at: C=C1/C(=C\C=C2/CCC[C@]3(C)[C@@H]([C@H](C)CCCC(O)(C(F)(F)F)C(F)(F)F)CC[C@@H]23)C[C@@H](O)C[C@@H]1O [falecalcitriol]
## Result 99.7

## Task Another compound to look at: Oc1c(Cl)cc(Cl)c2cccnc12 [chloroxine]
## Result 100

## Task Another compound to look at: CC(C)[C@H](N)C(=O)OCCOCn1cnc2c(=O)nc(N)[nH]c21 [valaciclovir]
## Result 111

## Task Another compound to look at: CN(C(=O)Cc1ccccc1)[C@H](CN1CCCC1)c1ccccc1 [N-MPPP]
## Result 106

## Task Another compound to look at: CC[C@H](Nc1ncnc2[nH]cnc12)c1nc2cccc(F)c2c(=O)n1-c1ccccc1 [idelalisib]
## Result 103

## Task Another compound to look at: CN1CCCC(CN2c3ccccc3Sc3ccccc32)C1 (configuration not stated) [mepazine]
## Result 99.5

## Task Another compound to look at: O=C(O[C@@H]1Cc2c(O)cc(O)cc2O[C@@H]1c1ccc(O)c(O)c1)c1cc(O)c(O)c(O)c1 [epicatechin-gallate-(-)]
## Result 91
